target: human recombinant P2X7 receptor (Homo sapiens (Human), UniProt Q99572); test: YO-PRO assay: P2X7 receptor antagonistic activity (ATP-induced YO-PRO-1 uptake, FLIPR)
Sequence (Q99572 whole entry): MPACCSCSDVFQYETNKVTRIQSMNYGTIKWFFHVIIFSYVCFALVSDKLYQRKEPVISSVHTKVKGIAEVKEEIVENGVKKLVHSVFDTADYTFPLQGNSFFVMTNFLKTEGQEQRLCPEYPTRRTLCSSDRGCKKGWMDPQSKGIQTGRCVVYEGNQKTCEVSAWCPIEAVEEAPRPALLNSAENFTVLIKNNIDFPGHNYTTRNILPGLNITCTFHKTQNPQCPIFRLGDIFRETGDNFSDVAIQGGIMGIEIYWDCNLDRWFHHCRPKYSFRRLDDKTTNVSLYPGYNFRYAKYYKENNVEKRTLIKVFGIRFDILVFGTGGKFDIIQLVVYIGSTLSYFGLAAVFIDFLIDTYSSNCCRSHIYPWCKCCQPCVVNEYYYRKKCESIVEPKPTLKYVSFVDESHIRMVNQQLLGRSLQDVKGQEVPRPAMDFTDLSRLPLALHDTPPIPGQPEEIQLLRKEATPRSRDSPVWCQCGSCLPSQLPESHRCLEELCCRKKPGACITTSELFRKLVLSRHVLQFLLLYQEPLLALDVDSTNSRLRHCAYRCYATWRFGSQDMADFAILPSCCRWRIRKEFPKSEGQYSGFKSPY
pIC50: −log10 of the molar value.
Here, each record is paired with measured pIC50 data.
ATTRIBUTE_MEASURED: pIC50

1) O=C(NCc1cccc(Cl)c1Cl)C1CCOc2ncccc21 (racemic) ... 7.97
2) CCc1cc(Cl)cc(Cl)c1CNC(=O)C1COc2ncccc21 (racemic) ... 8.82
3) O=C(NC1CCc2cc(Cl)ccc21)C1COc2ncccc21 (single isomer, unassigned) [Example 100] ... 7.22
4) O=C(NCCCc1ccc(Cl)cc1Cl)C1COc2ncccc21 (racemic) ... 6.46
5) O=C(NCc1c(Cl)cc(Cl)cc1OCCO)C1COc2ncccc21 (racemic) ... 7.26
6) O=C(NCC(c1cnc(C(F)(F)F)nc1)N1CCOCC1)C1COc2ncccc21 (single isomer, unassigned) [Example 59] ... 6.46
7) COc1cc(Cl)cc(Cl)c1CNC(=O)C1COc2ncccc21 (racemic) ... 7.59
8) N#Cc1ccc(CNC(=O)C2COc3ncccc32)c(Cl)c1 (racemic) ... 6.41
9) O=C(NC(CO)C1CCCCCC1)C1COc2ncccc21 (single isomer, unassigned) [Example 13] ... 6.09
10) O=C(NCc1ccc(OC(F)(F)F)c(F)c1)C1CCOc2ncccc21 (racemic) ... 5.93
11) O=C(NCC(c1cnc(C(F)(F)F)nc1)N1CCOCC1)C1COc2ncccc21 (single isomer, unassigned) [Example 60] ... 7.54
12) [2H]C([2H])([2H])c1cc(Cl)cc(Cl)c1CNC(=O)C1COc2ncccc21 (racemic) [Example 96] ... 8.57

###

molecular target: human recombinant P2X7 receptor (Homo sapiens (Human)); assay: YO-PRO assay: P2X7 receptor antagonistic activity (ATP-induced YO-PRO-1 uptake, FLIPR)
pIC50: −log10 of the molar value.
molecules and their reported pIC50
ATTRIBUTE_MEASURED: pIC50

1. Cc1c(Cl)cccc1CNC(=O)C1CCOc2ncccc21 (racemic) ... 7.80
2. O=C(NCc1ccc(Cl)cc1Cl)C1COc2ncccc21 (racemic) ... 7.23
3. O=C(NCc1ccc(Oc2ccccc2)cc1)C1COc2ncccc21 (racemic) ... 5.95
4. O=C(NCc1c(Cl)cc(Cl)cc1Cl)C1COc2ncccc21 (racemic) ... 7.90
5. Cc1c(Cl)cccc1CNC(=O)C1COc2ncccc21 (racemic) ... 7.33
